Recorded values, source paper PMC6480404.

- measuredOn: Streptococcus pyogenes Cas9 (Streptococcus pyogenes, UniProt Q99ZW2 1-1368)
- protocolNotes: native gel or EMSA
endpointName: pKd
Note on units: pKd is unitless, being -log10 of a concentration expressed in mol/L.

// query Retrieve pKd measured for AcrIIA4 (natural protein, Listeria monocytogenes prophage, UniProt A0A247D711 1-87, looked up) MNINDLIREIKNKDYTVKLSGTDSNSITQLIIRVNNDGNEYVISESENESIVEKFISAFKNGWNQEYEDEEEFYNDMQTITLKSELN and print it.
// result 7.11
